# Target System: Solute carrier family 12 member 5 (Homo sapiens)
# Test: modulation of human KCC2 ion transport – cell-based, HEK293 KCC2, FluoZin-2 fluorescence, MLSMR, primary screen (AID 1456);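 also: slope of fluorescence scaled to starting intensity during 10 to 20 s after thallium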
# Recorded Conditions: KCC2 cells, thallium flux FluoZin-2 fluorescence; at 10 µM
About 4,100 (2.2%) of roughly 190,000 compounds were called active.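 The calls were made as follows: active = thallium flux slope and its plate-corrected score both differing from the plate sample mean at a set confidence after two filtering rounds, in either direction; inactive = the rest.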 The list comes from a sample in which actives are over-represented; it also holds close analogues and randomly drawn compounds.
Response enum: active, inactive

Use the examples below as a reference point.
>  <Cpd Smiles>
O=C1COc2ccc(C(=O)COC(=O)c3cccnc3Cl)cc2N1

>  <Target System>
Solute carrier family 12 member 5 (Homo sapiens)

>  <Group Label>
inactive

$$$$
>  <Cpd Smiles>
COc1cccc(Nc2nnc(SCC(=O)N3CC(=O)Nc4ccccc43)s2)c1

>  <Target System>
Solute carrier family 12 member 5 (Homo sapiens)

>  <Group Label>
inactive

$$$$
>  <Cpd Smiles>
Cc1cc(C)nc(Nc2n[nH]c(-c3ccccc3N)n2)n1

>  <Target System>
Solute carrier family 12 member 5 (Homo sapiens)

>  <Group Label>
inactive

$$$$

[ask] GET /call?item= NC(=O)N/N=C\c1cccs1 returns the recorded outcome of this test.
[reply] inactive

[ask] GET /call?item= COc1cc(CN2CCN(Cc3ccc(C)cc3)CC2)c([N+](=O)[O-])cc1OC returns the recorded outcome of this test.
[reply] inactive

[ask] GET /call?item= CCc1ccc(Nc2nnc(SCC(=O)c3ccc4c(c3)NC(=O)CO4)s2)cc1 returns the recorded outcome of this test.
[reply] active

[ask] GET /call?item= Cn1nc(C(F)(F)F)c(-c2ccc(F)cc2)c1NC(=O)CSCC(=O)O returns the recorded outcome of this test.
[reply] inactive

[ask] GET /call?item= O=C(O)CC1(CC(=O)Nc2cccc(C(F)(F)F)c2)CCCC1 returns the recorded outcome of this test.
[reply] inactive

[ask] GET /call?item= O=C(Nc1ccccc1)c1ccc2c(c1)OCO2 returns the recorded outcome of this test.
[reply] inactive

[ask] GET /call?item= CCn1c(SCC(=O)N/N=C/c2ccccc2OCC(=O)O)nnc1-c1ccc(C(C)(C)C)cc1 returns the recorded outcome of this test.
[reply] inactive

[ask] GET /call?item= C=CCN(C(=O)Nc1ccc2c(c1)nc(C)n2C)c1ccccc1 returns the recorded outcome of this test.
[reply] inactive

Origin of the recorded values: PubChem BioAssay AID1456
